- Tested on: 556581-035-R-J1-PDC complex spheroid growth;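 further: spheroids exposed to agents for 7 days before viability read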
- experiment-notes: Anticancer human tumor 556581-035-R-J1-PDC patient-derived ovarian carcinoma cell line growth inhibition [Asc]
- condition-summary: second compound 0.1 µM; first compound 0.01 µM; stronger effect = lower value

| compound | viability, T/C |
| --- | --- |
| Cn1ncnc1[C@H]1c2n[nH]c(=O)c3cc(F)cc(c23)N[C@@H]1c1ccc(F)cc1 + Cc1c(S(C)(=O)=O)c(-c2cc(F)cc(N3CCN(c4ccc(NS(=O)(=O)c5ccc(NC(CCN6CCC(C(=O)OCCCP(=O)(O)O)CC6)CSc6ccccc6)c(S(=O)(=O)C(F)(F)F)c5)cc4)CC3)c2)c(-c2ccc(Cl)cc2)n1C(C)C | 78% |
| CCN1CCN(Cc2ccc(Nc3ncc(F)c(-c4cc(F)c5nc(C)n(C(C)C)c5c4)n3)nc2)CC1 + CNC(C)C(=O)NC1CN(S(=O)(=O)c2cccc(S(=O)(=O)N3CCC4CCC(C(=O)NC(c5ccccc5)c5ccccc5)N4C(=O)C(NC(=O)C(C)NC)C3)c2)CCC2CCC(C(=O)NC(c3ccccc3)c3ccccc3)N2C1=O | 79.3% |
| CCN1CCN(Cc2ccc(Nc3ncc(F)c(-c4cc(F)c5nc(C)n(C(C)C)c5c4)n3)nc2)CC1 + Cc1c(S(C)(=O)=O)c(-c2cc(F)cc(N3CCN(c4ccc(NS(=O)(=O)c5ccc(NC(CCN6CCC(C(=O)OCCCP(=O)(O)O)CC6)CSc6ccccc6)c(S(=O)(=O)C(F)(F)F)c5)cc4)CC3)c2)c(-c2ccc(Cl)cc2)n1C(C)C | 75.3% |
| COc1c(OCCCN2CCOCC2)ccc2c3n(c(=NC(=O)c4cnc(N)nc4)nc12)CCN3 + Cc1c(S(C)(=O)=O)c(-c2cc(F)cc(N3CCN(c4ccc(NS(=O)(=O)c5ccc(NC(CCN6CCC(C(=O)OCCCP(=O)(O)O)CC6)CSc6ccccc6)c(S(=O)(=O)C(F)(F)F)c5)cc4)CC3)c2)c(-c2ccc(Cl)cc2)n1C(C)C | 67.5% |
| COc1c(OCCCN2CCOCC2)ccc2c3n(c(=NC(=O)c4cnc(N)nc4)nc12)CCN3 + CNC(C)C(=O)NC1CN(S(=O)(=O)c2cccc(S(=O)(=O)N3CCC4CCC(C(=O)NC(c5ccccc5)c5ccccc5)N4C(=O)C(NC(=O)C(C)NC)C3)c2)CCC2CCC(C(=O)NC(c3ccccc3)c3ccccc3)N2C1=O | 49.9% |
| Cn1ncnc1[C@H]1c2n[nH]c(=O)c3cc(F)cc(c23)N[C@@H]1c1ccc(F)cc1 + CNC(C)C(=O)NC1CN(S(=O)(=O)c2cccc(S(=O)(=O)N3CCC4CCC(C(=O)NC(c5ccccc5)c5ccccc5)N4C(=O)C(NC(=O)C(C)NC)C3)c2)CCC2CCC(C(=O)NC(c3ccccc3)c3ccccc3)N2C1=O | 69.2% |
| NC1CCC(NC2CC2c2ccccc2)CC1 (configuration not stated) + Cc1c(S(C)(=O)=O)c(-c2cc(F)cc(N3CCN(c4ccc(NS(=O)(=O)c5ccc(NC(CCN6CCC(C(=O)OCCCP(=O)(O)O)CC6)CSc6ccccc6)c(S(=O)(=O)C(F)(F)F)c5)cc4)CC3)c2)c(-c2ccc(Cl)cc2)n1C(C)C | 77.2% |

From: PubChem BioAssay AID1963450
